Value source: the supplement of paper PMC7125110

B1: glmS ribozyme (parent)
chain: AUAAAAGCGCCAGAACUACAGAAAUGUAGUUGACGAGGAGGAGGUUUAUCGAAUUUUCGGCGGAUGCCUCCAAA

# Variants of: B1
# experimental-details: self-cleavage kobs at 40 uM GlcN6P; higher = faster cleavage; RNA array
# test-parameters: with glucosamine-6-phosphate
This sample holds only a part of the variants without activity.
Some variants, each annotated with its measured self-cleavage kobs at 40 uM GlcN6P.
reported-property: self-cleavage kobs at 40 uM GlcN6P

{"variant-descriptor": "C11A A15C U45G C70U", "experimental-value": "< 1e-05 s⁻¹"}
{"variant-descriptor": "C34U U57C C58U", "experimental-value": "< 1e-05 s⁻¹"}
{"variant-descriptor": "A33G C71U", "experimental-value": "< 1e-05 s⁻¹"}
{"variant-descriptor": "G29U C68U", "experimental-value": "2.51e-05 s⁻¹"}
{"variant-descriptor": "A6U C34G", "experimental-value": "< 1e-05 s⁻¹"}
{"variant-descriptor": "A14G G44A", "experimental-value": "2.21e-05 s⁻¹"}
{"variant-descriptor": "G41C A64C", "experimental-value": "< 1e-05 s⁻¹"}
{"variant-descriptor": "C10G A12G G59U C61G", "experimental-value": "< 1e-05 s⁻¹"}
{"variant-descriptor": "C8U U30G", "experimental-value": "< 1e-05 s⁻¹"}
{"variant-descriptor": "C61G G63C", "experimental-value": "< 1e-05 s⁻¹"}
{"variant-descriptor": "U31C G60A", "experimental-value": "< 1e-05 s⁻¹"}
